Where do the numbers come from? From patent US20240360228A1.

% Blocking values by entry
# Measured Target: T1, human chemokine (C-C motif) receptor 8 (CCR8) (human, UniProt P51685 1-355)
# T1 construct: also called hCCR8
# T1 sequence (P51685 whole entry): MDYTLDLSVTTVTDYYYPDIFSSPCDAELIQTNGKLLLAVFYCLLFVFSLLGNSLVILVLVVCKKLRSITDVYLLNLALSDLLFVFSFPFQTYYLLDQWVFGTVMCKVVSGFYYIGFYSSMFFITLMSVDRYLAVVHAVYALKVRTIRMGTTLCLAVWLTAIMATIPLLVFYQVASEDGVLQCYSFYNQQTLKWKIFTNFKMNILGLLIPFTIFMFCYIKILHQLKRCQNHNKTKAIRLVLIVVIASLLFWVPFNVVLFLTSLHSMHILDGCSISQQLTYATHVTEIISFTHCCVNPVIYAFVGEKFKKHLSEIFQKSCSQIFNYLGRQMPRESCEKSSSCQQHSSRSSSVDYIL
# Assay Method Text: flow cytometry blocking, human PBMC, CD3+ gate; competitor PE-AB8
Lab book: enter the figure in %, no units written.

{"columns": ["Binder", "Result"],
 "data": [
  ["anti-CCR8 monoclonal antibody AB8 (antibody, V domains shown, Hybridoma monoclonal; also called antibody 8; clone 8) VH: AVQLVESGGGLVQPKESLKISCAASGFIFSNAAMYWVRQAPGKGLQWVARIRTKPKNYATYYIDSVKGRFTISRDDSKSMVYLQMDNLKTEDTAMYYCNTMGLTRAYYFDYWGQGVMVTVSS VL: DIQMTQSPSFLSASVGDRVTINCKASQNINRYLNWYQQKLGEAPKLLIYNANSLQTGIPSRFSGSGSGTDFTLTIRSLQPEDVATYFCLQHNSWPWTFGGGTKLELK", 18]
]}

Let us examine a further case.
QUERY: Indicate the recorded % Blocking value for this binder: anti-CCR8 monoclonal antibody AB7 (antibody, V domains shown, Hybridoma monoclonal; also called antibody 7; clone 7) VH: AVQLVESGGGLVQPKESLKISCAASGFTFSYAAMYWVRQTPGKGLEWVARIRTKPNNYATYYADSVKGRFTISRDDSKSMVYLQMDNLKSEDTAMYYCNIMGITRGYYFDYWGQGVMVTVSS VL: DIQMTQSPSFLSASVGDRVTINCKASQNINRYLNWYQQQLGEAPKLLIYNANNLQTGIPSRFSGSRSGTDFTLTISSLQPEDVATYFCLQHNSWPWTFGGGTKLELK
RESULT: 92.9
